Measurement conditions: buffer; pH 7.4; 200.0 µM
Measured parameter: solubility kinetic

Ask: # query: solubility kinetic of entry "CCCn1c(N)c(C(=O)CN2CCN(S(=O)(=O)c3cccc(Cl)c3)CC2)c(=O)[nH]c1=O"
Result: > 70.5 µg/mL

Ask: Data request, read-out solubility kinetic, for "O=C(NC(=S)N1CCN(C2CCCCC2)CC1)c1ccccc1"
Result: > 49.7 µg/mL

Ask: Name the reported solubility kinetic value associated with the molecule CC(=O)OC(C(=O)NC1CCCCC1)c1ccccc1F (centres undefined)
Result: > 44 µg/mL

Ask: Would you mind telling me what solubility kinetic value was observed for "N#Cc1ccc(NC(=O)C2=COCCO2)cc1" ?
Result: > 34.5 µg/mL

Ask: Which solubility kinetic value belongs to "Cc1ccc(-c2nc3ncccc3o2)cc1N" ?
Result: > 33.8 µg/mL

Ask: Item "Cc1cc([N+](=O)[O-])ccc1NC(=O)c1cc2ccccc2o1" has what recorded solubility kinetic?
Result: < 0.3 µg/mL

Ask: For the molecule shown here, "Cc1cc(Oc2ccc(OCC(N)=O)nn2)nc(Cl)n1" , give the reported solubility kinetic.
Result: > 44.4 µg/mL

Ask: Would you kindly share the measured solubility kinetic for "O=C(COC(=O)C1CCC1)Nc1ccc(Cl)cn1" ?
Result: > 40.3 µg/mL

Ask: What solubility kinetic value was documented for this molecule, "O=C1N=C(N2CCOCC2)S/C1=C\c1cccnc1" ?
Result: > 41.3 µg/mL

Ask: Find the recorded solubility kinetic belonging to "O=C(O)COCC(=O)NCc1nc(-c2ccc(C(F)(F)F)cc2)no1" and report it.
Result: > 53.9 µg/mL

Ask: Recorded solubility kinetic for "CNC(=O)N1c2ccccc2CCc2ccccc21" , please?
Result: > 37.8 µg/mL

Ask: Which value of solubility kinetic has been reported for "Nc1ccccc1C(=O)NCC1(c2ccccc2)CCCC1" in the records?
Result: > 44.2 µg/mL

Ask: Recorded solubility kinetic for "COCCNC(=S)Nc1ccccn1" , please?
Result: > 31.7 µg/mL

Ask: # get_value(readout='solubility kinetic', item= "Cc1cccc(C)c1N1C(=O)CCC(C)(C)C1=O" )
Result: > 36.8 µg/mL

Ask: What value of measured solubility kinetic is listed for "CC(=O)O[C@H](CC(=O)O)C[N+](C)(C)C.[Cl-]" ?
Result: > 36 µg/mL

Ask: Given CC(=O)N1Cc2[nH]c3ccccc3c2CC1C(=O)O (centres undefined) , state its recorded solubility kinetic.
Result: > 38.7 µg/mL

Ask: Give its solubility kinetic value. Item: "O=C(Nc1ccncc1)c1ccccc1Cl"
Result: > 34.9 µg/mL

Ask: Entry under review: "Cc1cc(C(=O)Nc2ccccc2C(=O)O)c(C)o1" . Reported solubility kinetic?
Result: > 38.9 µg/mL

Ask: Looking for the measured solubility kinetic of CC1SCC(=NOCc2c(Cl)cccc2Cl)CS1 (centres undefined) , can you help?
Result: < 0.7 µg/mL

====

Measurement conditions: buffer; pH 7.4; 200.0 µM
Measured parameter: solubility kinetic (µg/mL)
Write the answer as a number in µg/mL, unit excluded.

Ask: Look up solubility kinetic: "Cc1cccc(NC(=S)Nc2cccc3ccccc23)c1"
Result: 3.8

Ask: # query: solubility kinetic of entry "N#C/C(=C/c1ccc(O)c(O)c1)C(=O)NCc1ccc(Cl)cc1"
Result: 44.9

Ask: Which value of solubility kinetic has been reported for "NS(=O)(=O)c1ccc(CCNC(=O)c2ccc3c(=O)n4c(nc3c2)CCCCC4)cc1" in the records?
Result: 8.2

Ask: Fill in the blank: the reported solubility kinetic of "CCCc1cc(=O)[nH]c(SCC(=O)Nc2cc(S(=O)(=O)N(CC)c3ccccc3)ccc2Cl)n1" is ____.
Result: 9.8

Ask: Requested read-out: solubility kinetic. Entry: "Cc1ccc(NC(=S)N(Cc2ccccc2)C(C)C)cc1"
Result: 7.6

Ask: Please give the measured solubility kinetic for this molecule: "O=C(Cc1ccc(Cl)c(Cl)c1)Nc1cccc2ncccc12"
Result: 2.1

Ask: Record request: solubility kinetic value, item "O=C(/C=C/c1ccncc1)c1ccc2c(c1)OCCO2"
Result: 26.9

Ask: Given the molecule "O=[N+]([O-])c1ccc2nc(N3CCCC3)sc2c1" , what is its reported solubility kinetic?
Result: 2.8

Ask: Fill blank: measured solubility kinetic of the molecule O=C(Nc1ccc(F)cc1)C(NC1CCCCC1)c1ccccc1 (stereo not given) is ____.
Result: 40.6
